target: T1, Sulfotyrosine CCR2b biotin peptide (human); test: ELISA, 50 nM mAb
T1 construct: also called CCR2b peptide
T1 peptide: TTFFD[sY]D[sY]GAPSHGGK(Biotin)
Non-standard residues stand in square brackets, D forms with d. No end group written: not given here. *: point of attachment. Biotin = O=C1N[C@H]2[C@H](CS[C@H]2CCCCC(=O)*)N1; sY = N[C@@H](Cc1ccc(OS(=O)(=O)O)cc1)C(=O)O
measurement type: binding normalized to PSGL-1

[
  {
    "binder": "18F02 (antibody, V domains shown, From mouse immunisation; only variable domains given) VH: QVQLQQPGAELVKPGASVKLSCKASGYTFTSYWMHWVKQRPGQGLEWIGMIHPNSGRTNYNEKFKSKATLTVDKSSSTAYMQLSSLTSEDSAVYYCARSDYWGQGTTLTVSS VL: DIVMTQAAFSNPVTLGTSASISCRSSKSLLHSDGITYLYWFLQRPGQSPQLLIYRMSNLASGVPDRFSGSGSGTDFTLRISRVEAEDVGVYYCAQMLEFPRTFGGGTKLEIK",
    "binding normalized to PSGL-1": 0.03
  },
  {
    "binder": "08C07 (antibody, IgG4, V domains shown) VH: QMQLVQSGAEVKKPGSSVKVSCKASGGTFSNYGMIWVRQAPRQGLEWMGRIIPFLDKPDYSEKFQDRITFTADKSTSTVYMELRGLRSDDTAVYYCAKWTSTLQGITTGQTWGQGTLVTVSS VL: QPVLTQPPSASGTPGQRVTISCSGSSSNIGGSYMYWYQQFPGTAPKLLIYRNNQRPSGVPDRFSGSKSGTSASLAISGLRSEDEADYYCAAWDVSLSGWVFGGGTKLTVL",
    "binding normalized to PSGL-1": 0.79
  },
  {
    "binder": "09A02 (antibody, IgG4, V domains shown) VH: EVQLVQSGGGLVKPGGSLRLSCAASGFTFRTAWMSWVRQAPGKGLEWVGRMKSKNDGGTTDYAAPVKGRFTISRDDSRDTVYLQMNSLKTEDTGVYYCATYAAGATVPWGQGTLVTVSS VL: DIVMTQTPLSAPVTLGQPASISCRSSRSLLQRNGYNYVDWYQQKAGNPPRLLIYLGSRRASGVPDRFSGSGSDKDFTLKISRVEADDVGFYFCKQSLQAPPTFGGGTKIEIT",
    "binding normalized to PSGL-1": 0.93
  },
  {
    "binder": "03B01 (antibody, IgG4, V domains shown) VH: QMQLVQSGAEVKKPGASVKVSCRASGYRFSTYAISWVRQAPGQGLEWIGWISTHHGNTKYAQKFQDRVTMTADASTSIAYMELRSLRSDDTAVYYCAAAIGNYWGQGTLVTVSS VL: EIVLTQSPAILSVSPGERASLSCRASQSVSSKLAWYQQKPGQAPRLLIYGASTRATGIPPRFSGSGSGTDFTLTISSLEPEDFAVYYCQQRSNWPLTFGGGTKVEIK",
    "binding normalized to PSGL-1": 1.1
  },
  {
    "binder": "10B03 (antibody, IgG4, V domains shown) VH: EVKLLESGGDLVQPGGSLRLSCAASGLTFSNYAMSWVRQAPGKGLEWVSAISGSGDNTYYADSVKGRFTISRDNSKNTLYLQMNSLRADDTAVYFCAKRDSWGQGTLVTVSS VL: QAVLTQPPSASGTPGQRVTISCSGSTSNIGSRDVYWYQHLPGTAPKLVIYRNDQRPSGVPDRFSGSKSGTSASLAISGLRSEDDADYYCAVWDNSLRGRVFGGGTKLTVL",
    "binding normalized to PSGL-1": 0.98
  }
]

q: GET /values?readout=binding normalized to PSGL-1&item= 02E01 (antibody, IgG4, V domains shown) VH: EVQLVQSGGGVVQPGRSLRLSCAASGFTFSRYGMHWVRQAPGKGLEWVSVISYDGNNKYYADSVKGRFTISRDNSKNTVYLQMNSLRADDTAVYYCARNVPVTNFGYWGQGTLVTVSS VL: QSALTQPASVSGSPGQSITISCTGTSSDVGGYNYVSWYQQHPGKAPKLMIYDVSKRPSGVSNRFSGSKSGNTASLTISGLQAEDEADYYCSSYTRPGRVFGGGTKLTVL
a: 0.56

q: Lookup 20I15 (antibody, V domains shown, From mouse immunisation; only variable domains given; also called 20115) VH: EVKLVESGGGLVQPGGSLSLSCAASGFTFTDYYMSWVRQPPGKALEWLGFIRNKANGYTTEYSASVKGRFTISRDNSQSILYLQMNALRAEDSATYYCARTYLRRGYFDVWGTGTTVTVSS VL: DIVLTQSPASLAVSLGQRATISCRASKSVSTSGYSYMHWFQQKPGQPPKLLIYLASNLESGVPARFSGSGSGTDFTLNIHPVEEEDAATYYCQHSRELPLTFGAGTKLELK
a: 0.21

q: Lookup 09B09 (antibody, IgG4, V domains shown) VH: EVKLLESGGGLVQPGGSLRLSCAASGITFSTYAMMWVRQAPGKGLEWVSGISGSGASRYYADSVKGRFTISRDNSKNMLYLQMNSLRAEDTAVYYCAKKVLGRRKQYFDDWGQGTLVTVSS VL: DIVMTQSPLSLPVTPGEPASISCRSSQSLLHSNGYNYLDWYLQRPGQSPQLLIYLGSHRASGVPDRFSGSGSGTEHTLKITTVAAEDVGVYYCMQALQSPPTFGQGTRLDIK
a: 0.26

q: Lookup 03E05 (antibody, IgG4, V domains shown) VH: EVKLLESGGDLAQTGGSLRLSCVASGFTFSSYPMSWVRQAPGKGLEWVSAIRRSGATQYADSVKGRFTISRDNSKNTVYLQMNSLRVEDTAVYYCAKGTYDLGQGTLVTVSS VL: DIVMTQTPLSLPVTLGQPASISCRSSQSLVYSDGNTYLNWFHQRPGQSPRRLIYKVSNRDSGVPDRFSGSGSDTEFTLKISRVEAEDVGVYYCMQATHWPLTFGGGTKVEIK
a: 0.27
